# measurementTarget: Pyruvate kinase PKM (Homo sapiens, UniProt P14618)
# Sequence (P14618 whole entry): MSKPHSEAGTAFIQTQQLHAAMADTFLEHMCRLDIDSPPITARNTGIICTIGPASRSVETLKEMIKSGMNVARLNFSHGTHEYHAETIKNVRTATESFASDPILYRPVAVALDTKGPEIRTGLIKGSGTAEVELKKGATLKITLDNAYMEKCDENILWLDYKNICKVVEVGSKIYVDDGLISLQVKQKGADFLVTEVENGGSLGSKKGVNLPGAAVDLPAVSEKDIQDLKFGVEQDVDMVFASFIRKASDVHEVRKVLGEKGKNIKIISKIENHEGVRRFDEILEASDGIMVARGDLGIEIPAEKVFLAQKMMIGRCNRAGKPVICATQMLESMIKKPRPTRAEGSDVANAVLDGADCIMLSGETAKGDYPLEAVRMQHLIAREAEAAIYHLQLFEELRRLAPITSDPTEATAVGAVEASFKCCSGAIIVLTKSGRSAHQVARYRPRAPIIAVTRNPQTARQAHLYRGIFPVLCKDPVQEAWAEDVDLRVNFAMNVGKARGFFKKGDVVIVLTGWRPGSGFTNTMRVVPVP
# assayNotes: Activation of recombinant human PKM2 incubated for 40 mins by pyruvate kinase assay
reportedEndpoint: AC50

Exercise: Name the reported AC50 value associated with the compound C=C1C(=O)O[C@H]2[C@H]1CC/C(CNS(=O)(=O)C(F)(F)F)=C\CC[C@@]1(C)O[C@@H]21
Key: > 3 µM

***
Exercise: Name the reported AC50 value associated with the compound C=C1C(=O)O[C@H]2[C@H]1CC/C(COC(=O)N1CCN(CC)CC1)=C\CC[C@@]1(C)O[C@@H]21
Key: > 3 µM

Exercise: Name the reported AC50 value associated with the compound C=C1C(=O)O[C@H]2[C@H]1CC/C(CNS(C)(=O)=O)=C\CC[C@@]1(C)O[C@@H]21
Key: > 3 µM

====

# Tested on: T-cell
# assayNotes: Antiproliferative activity against concanavalin A-stimulated C57BL/6 mouse T cells measured after 48 hrs by CCK8 assay
# Type: functional, cell-based
# experimentalSetup: C57BL/6, T-cell
reportedEndpoint: IC50 (µM)
# value in µM; strip the unit string

Exercise: Name the reported IC50 value associated with the compound C=C1C(=O)O[C@H]2[C@H]1CC/C(COC(=O)NCCC)=C\CC[C@@]1(C)O[C@@H]21
Key: 1.27

Exercise: Name the reported IC50 value associated with the compound C=C1C(=O)O[C@@H]2C3O[C@]3(C)CC/C=C(\C)CC[C@@H]12 (stereo partly drawn)
Key: 1.96

Exercise: Name the reported IC50 value associated with the compound C=C1C(=O)O[C@H]2[C@H]1CC/C(COC(=O)NCC)=C\CC[C@@]1(C)O[C@@H]21
Key: 1.7

Exercise: Name the reported IC50 value associated with the compound C/C1=C\CC[C@@]2(C)O[C@H]2[C@H]2OC(=O)/C(=C/c3ccccc3)[C@@H]2CC1
Key: 4.27

Exercise: Name the reported IC50 value associated with the compound C=C1C(=O)O[C@H]2[C@H]1CC/C(COC(=O)NCCN(CC)CC)=C\CC[C@@]1(C)O[C@@H]21
Key: 2.52

Exercise: Name the reported IC50 value associated with the compound C=C1C(=O)O[C@H]2[C@H]1CC/C(CNS(C)(=O)=O)=C\CC[C@@]1(C)O[C@@H]21
Key: 3.15

***
Exercise: Name the reported IC50 value associated with the compound C=C1C(=O)O[C@H]2[C@H]1CC/C(COC(=O)N(CCC)CCC)=C\CC[C@@]1(C)O[C@@H]21
Key: 1.18
